Hi, quick share: literature pIC50 data for mitochondrial RNA-polymerase (POLRMT) (Mus musculus, UniProt Q8BKF1), several sources combined.
pIC50: −log10 of the molar value.

Take a look at these entries with their results.
# compound, pIC50
records = [
    ("CCOC(=O)C[C@H]1CCCN(C(=O)[C@@H](C)Oc2ccc3c(-c4ccc(F)cc4Cl)ccnc3c2)C1", "7.00 to 7.70"),
    ("Cc1ccsc1-c1cc(=O)oc2cc(O[C@H](C)C(=O)NC(C)C)ccc12", "6.00 to 7.00"),
    ("CCOC(=O)C(C)Oc1ccc2c(-c3cccc(F)c3)cc(=O)oc2c1 (centres unmarked)", "7.00 to 7.70"),
    ("Cc1ccccc1-c1cc(Cl)nc2cc(O[C@H](C)C(=O)N3CCC[C@H](C(N)=O)C3)ccc12", "6.00 to 7.00"),
    ("CCOC(=O)c1cccc(NC(=O)[C@@H](C)Oc2ccc3c(-c4ccc(F)cc4Cl)ccnc3c2)c1", "5.00 to 6.00"),
]

Continue with the next compound.
Could you share which pIC50 value was measured for CCC(Oc1ccc2c(-c3ccccc3Cl)ccnc2c1)C(=O)N1CCC[C@H](CC(=O)O)C1 (mixture of isomers) ?
7.00 to 7.70

----------
Collected set of IC50 measured with mitochondrial RNA-polymerase (POLRMT) (Mus musculus) across studies.

# compound, result
data = [
    ("CC(C)(Oc1ccc2c(-c3ccccc3Cl)cc(=O)oc2c1)C(=O)N1CCC[C@H](C(=O)O)C1", "100 to 1000 nM"),
    ("C[C@@H](Oc1ccc2c(-c3ccc(F)cc3Cl)cc(=O)oc2c1)C(=O)N1CCC[C@H](C(=O)OC(C)(C)C)C1", "20 to 100 nM"),
    ("Cc1cc(-c2ccc(F)cc2Cl)c2ccc(O[C@H](C)C(=O)N3CCC[C@@H](S(N)(=O)=O)C3)cc2n1", "1000 to 10000 nM"),
    ("O=C(COc1cc2oc(=O)cc(-c3ccccc3)c2cc1Cl)NCCN1CCOCC1", "1000 to 10000 nM"),
    ("C[C@@H](Oc1ccc2c(-c3ccc(F)cc3Cl)cc(=O)oc2c1)C(=O)N1CCC[C@H](CC(N)=O)C1", "< 20 nM"),
]

Which measured IC50 value corresponds to CC(C)NC(=O)C(C)Oc1ccc2c(-c3ccccc3Cl)cc(=O)oc2c1 (stereo not shown) ?
20 to 100 nM

How about this compound: C[C@@H](Oc1ccc2c(-c3ccccc3Cl)ccnc2c1)C(=O)N1CCC(CC(=O)O)CC1
20 to 100 nM

----------
Ok so here's the combined literature set: IC50 for mitochondrial RNA-polymerase (POLRMT) (Mus musculus).

# compound, IC50
data = [
    ("C[C@@H](Oc1ccc2c(-c3c(Cl)cccc3Cl)ccnc2c1)C(=O)N1CCC[C@H](CC(=O)O)C1", "< 20 nM"),
    ("COC(=O)C1CCN(C(=O)C(C)Oc2ccc3c(-c4ccccc4)cc(=O)oc3c2)CC1 (stereo not shown)", "1000 to 10000 nM"),
    ("C[C@@H](Oc1ccc2c(-c3ccc(F)cc3Cl)ccnc2c1)C(=O)Nc1cccc(C(=O)O)c1", "20 to 100 nM"),
]

Here's the next entry for you.
Which measured IC50 belongs to C[C@@H](Oc1ccc2c(-c3ccc(F)cc3Cl)cc(=O)oc2c1)C(=O)Nc1ccc(CO)cc1 , tested on mitochondrial RNA-polymerase (POLRMT) (Mus musculus)?
< 20 nM
